Field: IC50 (ng/mL), cell-based neutralization (luciferase), IL-31-CEE at 300 pg/mL. Provide a value for each of the binders that follow.
- TARGET_DESC: T1, IL-31-CEE: purified, recombinant human IL-31 fused at the C-terminal with a peptide consisting of the … (human, UniProt Q6EBC2 24-164)
- T1 sequence: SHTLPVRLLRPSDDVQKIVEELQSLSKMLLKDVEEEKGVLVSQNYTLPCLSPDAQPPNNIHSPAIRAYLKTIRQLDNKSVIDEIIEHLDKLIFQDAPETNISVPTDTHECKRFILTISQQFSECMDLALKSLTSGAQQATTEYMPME
- EXPERIMENT_NOTES: cell-based or functional assay
Expressed in ng/mL, but write only the number.

Report IC50 (ng/mL), cell-based neutralization (luciferase), IL-31-CEE at 300 pg/mL for mouse anti-human IL-31 mAb from clone 292.84.1.6 (ATCC Patent Deposit Designation PTA-6871) (antibody, V domains shown, Mouse IgG2a, kappa; Assays used first round clone 292.84.1) VH: QVQLQQSGAELARPGASVNLSCKASGYTLTRYWMQWVKQRPGQGLEWIGTIYPGDGDTRYSQKFKGKASLTADKSSNTAYMQLNNLASEDSAVYFCAFPDGYYAAPYGMDYWGQGTSVTVSS VL: DIQMTQSPASLSASVGETVTITCRASGNIHNYLAWYQQKQGRSPQLLVYNAKTLADGVPSRFSGSRSETQYSLKINSLQPEDFGSYYCQHFWSTPWTFGGGTKLEIK please.
1.08

Also, mouse anti-human IL-31 mAb from clone 292.12.3.1 (ATCC Patent Deposit Designation PTA-6815) (antibody, mouse IgG1, V domains shown, Mouse IgG1, kappa; assays used supernatant of first round clone 292.12.3) VH: QVQLQQSGAELARPGASVNLSCKASGYTLTRYWMQWVKQRPGQGLEWIGAIYPGDGDTRYSQKFKGKATLTADKSSSTAYMQLNNLASEDSAVYYCAFPDGYYAAPYGMDYWGQGTSVTVSS VL: DIQMTQSPASLSASVGETVTITCRASGNIHNYLAWYQQKQGKSPQLLVYNAKTLADGVPSRFSGSRSETQYSLKINSLQPEDFGSYYCQHFWSTPWTFGGGTKLEIK please.
1.2

Also, mouse anti-human IL-31 mAb from clone 292.64.6.5.5 (antibody, mouse IgG1, V domains shown, Mouse IgG1; assays used first round clone 292.64.6) VH: EVQLVESGGDLVKPGGSLKLSCAASGFTFSTYIMSWVRQSPEKRLEWVATINSGGYYTLYPDSVKGRFTISRDNAKNTLSLQLSSLRSEDTAMYFCARQEGWSSAWFAYWGQGTLVTVSA VL: DIVMTQSPSSLAMSVGQKVTMICNSSQSLLNSSNQKNYLAWYQQKPGQSPRLLIYFASTGESGVPDRFIGSGSGTDFTLTISNVQAEDLADYFCQQHFSTPYTFGGGTKLEIR please.
10.1
